System: SK-MEL-5 melanoma
Assay: NCI-60 one-dose screen, 48 h
Settings: 10 µM unless noted
About 83,000 compounds went through this panel and 20% of them were active in at least one assay; those are over-represented in the sample as a whole. Activity calls are given as the source filed them. Rule for the calls: active = growth percent below 10; inactive = the rest.
Permitted responses: active, inactive

What classification did O=C(Nc1cccc(Cl)c1)Nc1ncc(CCNc2ncnc3ccsc23)s1 end up with in this test?
active

Write down the call the test reported for this molecule. Item: CC(C)(C)c1nc(-c2cccc(NS(=O)(=O)c3c(F)cccc3F)c2F)c(-c2ccnc(N)n2)s1
inactive

Outcome? CN1CCN(Cc2ccc(NC(=O)c3[nH]ncc3Nc3ncnc4sc5c(c34)CCCC5)cc2)CC1
active

Returns: the outcome recorded for COc1ccc(Cc2cc(-c3ccccc3C)n[nH]c2=O)cc1 in this assay.
inactive

Kindly provide the recorded test outcome for the following molecule: O=C1/C(=C\c2cccc(OCCCCCOc3ccc(Cl)cc3)c2)N=C2SCCCN12
active

Could you kindly confirm the outcome this assay logged for Cc1ccc2oc(=O)cc(-c3cc(-c4cc5ccccc5oc4=O)nc(N)c3C#N)c2c1 ?
inactive

What did this assay record as the result for O=C(O)C1(Cc2cccc(Nc3nccs3)n2)CCC(Oc2cccc(Cl)c2F)CC1 (stereo unspecified) ?
inactive

Would you mind telling me which call this test gave Nc1c(C(=O)c2ccccc2)sc2nc(-c3cccs3)cc(-c3cccs3)c12 ?
inactive

Hi, sorry to bother you, what did the test record for Cn1ncc(Cl)c1-c1cc(C(=O)N[C@H](CN)Cc2cccc(F)c2)sc1Cl ?
active

Dear colleague, could you share the recorded outcome for CCCCCCCC12Cc3ccccc3C1=Nc1c(c3ccccc3n1C)C2=O (stereo unspecified) when you have a moment?
inactive

What call does the record list for COc1cc(OC)c(/C=C/S(=O)(=O)Cc2ccc(OC)c(NCC(=O)O)c2)c(OC)c1 ?
active

---

System: A498 renal
Experiment: NCI-60 one-dose screen, 48 h (100 = growth as untreated, 0 = no growth, -100 = all killed)
Conditions: 10 µM unless noted
The panel holds about 83,000 compounds, 20% with a hit somewhere; the sample as a whole holds those more often.
Could you please report measured growth for the items listed next?
Report the value in % with no unit label.

Supply measured growth of O=c1[nH]c([C@@H]2CCCN2)nc2c1oc1ccc(Cl)cc12 in your reply.
6.25

Could you please provide reported growth for CC[C@H](CO)Nc1nc(NCc2ccccc2)c2ncn(C(C)C)c2n1 ? Thanks!
71.3

For C[C@@H](N)c1ccc(C(=O)Nc2ccnc3[nH]ccc23)cc1 , write its growth.
56.9

// fetch growth given entry COc1cc(OC)c(/C=C/S(=O)(=O)Cc2ccc(OC)c(NCC(=O)O)c2)c(OC)c1
-4.03

Output growth of Cc1cc2c3c(cccc3c1)C(=O)c1ccccc1-2
93.2

For CCOc1cc2ncc(C#N)c(Nc3ccc(OCc4ccccn4)c(Cl)c3)c2cc1NC(=O)/C=C/CN(C)C , write its growth.
34.7

Output measured growth for this item: CO[C@H]1C[C@@H]2CC[C@@H](C)[C@@](O)(O2)C(=O)C(=O)N2CCCC[C@H]2C(=O)O[C@H]([C@H](C)C[C@@H]2CC[C@@H](OP(C)(C)=O)[C@H](OC)C2)CC(=O)[C@H](C)/C=C(\C)[C@@H](O)[C@@H](OC)C(=O)[C@H](C)C[C@H](C)\C=C/C=C/C=C/1C
2.06

State its growth for this compound: COC(=O)c1[nH]cnc1/N=N/N(C)CCO
121

---

System: MALME-3M melanoma
Assay: NCI-60 one-dose screen, 48 h (100 = growth as untreated, 0 = no growth, -100 = all killed)
Settings: 10 µM unless noted
Experimental: Cells are grown in 96 well plates and exposed to the test compound for 48 hours. Compounds are tested at a single concentration, which is 10^-5 M for most compounds. The reported endpoint is percent growth (GI% or GIPRCNT), where numbers from 0 - 100% represent growth inhibition, and numbers from -100% - 0 represent cell death. For example, a value of 40 represents 60% growth inhibition. A value of 0 means no net growth occurred over the course of the experiment. […]
Compounds without any hit were thinned out: in the full panel of roughly 83,000, 20% have a hit.
Lab note: anything with growth at or over 20% counts as met; the rest go in not met.

Does the compound CCOc1cc2ncc(C#N)c(Nc3ccc(F)c(Cl)c3)c2cc1NC(=O)/C=C/CN(C)C have recorded growth that is 20% or more?
not met

Is the recorded value of growth equal to or greater than 20% for this compound? CCOC(=O)C1=C(C)NC(=O)NC1c1cc(=O)oc2ccc(C)cc12 (centres undefined)
met

API: above_or_equal(metric=growth, cutoff=20%) for item CCCCCCCC(=O)SCC/C=C/[C@@H]1CC(=O)NCc2cccc(n2)C2=N[C@@](C)(CS2)C(=O)N[C@@H](C(C)C)C(=O)O1
met

Tell me whether growth is at least 20% here: Cn1cnc(-c2cc3nccc(Oc4ccc(NC(=S)NC(=O)Cc5ccccc5)cc4F)c3s2)c1
met

Confirm if growth reported for the compound Cc1cc(Nc2cc(N3CCN(C)CC3)nc(/C=C/c3ccccc3)n2)n[nH]1 is 20% or above.
not met

State whether the measured growth reaches 20%, counting equality as reaching it, for Cc1cn(-c2cc(NC(=O)c3ccc(C)c(Nc4nccc(-c5cnccn5)n4)c3)cc(C(F)(F)F)c2)cn1
not met

Quick check, growth >= 20%? C/C(=C(/c1ccc(Cl)cc1)c1ccc(OCCN2CCCCCC2)cc1)c1ccccc1
met

Check the entry CC(=O)OC1Oc2ccccc2-c2oc(=O)c(-c3cc4ccc(N(C)C)cc4oc3=O)cc21 (centres undefined) : does growth equal or exceed 20%?
not met

API: above_or_equal(metric=growth, cutoff=20%) for item CNC(=O)c1cc(Oc2cccc3nc(Nc4ccc(Cl)c(F)c4)ccc23)ccn1
not met

Given the entry CCc1ccc(C2=C(O)C(=O)C(c3ccc(CC)cc3)=C(O)C2=O)cc1 , answer whether its growth meets or surpasses 20%.
not met

Reported growth at or above 20%? CC(C)[C@@H]1CC[C@]2(CO2)[C@@H]2C(=O)OCC(C(=O)O)=C[C@H]21
not met

Form field: growth at least 20%? Entry: COc1ccc(C(=O)N2c3ccccc3Sc3ccccc32)c(F)c1
met

Reported growth at or above 20%? CNC(=O)c1nn(C)c2c1C(C)(C)Cc1cnc(Nc3ccc(N4CCN(C)CC4)cc3)nc1-2
not met

State whether the measured growth reaches 20%, counting equality as reaching it, for O=C(Nc1ccc(Nc2ncnc3sc4c(c23)CCOC4)cc1)Nc1ccc(Cl)c(C(F)(F)F)c1
met

Confirm if growth reported for the compound S=C(NCc1ccc2c(c1)OCO2)N1CCN(c2ncnc3c2oc2ccccc23)CC1 is 20% or above.
met

Hi team, for C=CC[n+]1c(/C=C/C=C2\N(C)c3ccccc3C2(C)C)sc2ccc(OC)cc21 , is the recorded growth at or above 20%?
not met

Hi team, for Cn1ccnc1C(=O)/C=C/c1ccc(CC(=O)Nc2ccc(Br)cc2)cc1 , is the recorded growth at or above 20%?
met

Say whether Cc1cnc(NC(=O)Nc2cc(Br)c(C)cc2OC[C@@H]2CNCCO2)cn1 shows growth of 20% or more.
not met

Determine whether measured growth meets or exceeds 20% for O=C(Cc1ccc(/C=C/C(=O)c2ncc[nH]2)cc1)Nc1ccc(S(F)(F)(F)(F)F)cc1
met

Reported growth reaches at least 20% for O=C1CCC(=O)CC1 ?
met

Does the reported growth for CC12O[C@H](C[C@@H](OC(=O)CCC(=O)O)[C@H]1O)n1c3ccccc3c3c4c(c5c6ccccc6n2c5c31)C(=O)NC4=O fall at or above the 20% mark?
not met

Please tell me: is the compound CN1CC[C@H](c2c(O)cc(O)c3c(=O)cc(-c4ccccc4Cl)oc23)[C@H](O)C1 at or over 20% in terms of growth?
not met

Please check the record C[C@@H](Oc1cc(-c2cnn(C3CCNCC3)c2)cnc1N)c1c(Cl)ccc(F)c1Cl and state if its growth is at or above 20%.
not met

Evaluate Cc1ncc(-c2ccnc(Nc3ccc(S(C)(=O)=O)cc3)n2)n1C(C)C : growth at minimum 20%?
not met

Determine whether measured growth meets or exceeds 20% for CCc1ccc(/C=C/c2ccc(O)c3ncccc23)[n+](C)c1
met

Identify whether the reported growth of the following compound is 20% or greater: O=C(Nc1ccc(C(=O)Nc2ccc(C3=NCCCN3)cc2)cc1)Nc1ccc(C2=NCCCN2)cc1
met

Entry CN1CCN(CC(=O)Nc2ccc(-c3nc4ccccc4s3)cc2)CC1 : is its growth no less than 20%?
met

Could you tell me if the measured growth of N#CCNC(=O)c1ccc(-c2ccnc(Nc3ccc(N4CCOCC4)cc3)n2)cc1 reaches 20% or more?
met

Decide: is the reported value of growth for Cn1ncc(Cl)c1-c1cc(C(=O)N[C@H](CN)Cc2cccc(F)c2)sc1Cl equal to or greater than 20%?
not met

Exam item: decide whether the reported growth for COc1cc(OC)c(C(=O)/C=C/c2cc3c(cc2OCc2ccccc2)OC(C)(C)CC3)cc1CC=C(C)C is at least 20%.
met

Hi, just wondering whether CCc1cnn2c(NCc3ccc[n+]([O-])c3)cc(N3CCCC[C@H]3CCO)nc12 shows growth of 20% or higher.
not met

I'd appreciate it if you could say whether NC1=Nc2cc(OCCCN3Cc4ccccc4C3)c(OCC3CC3)cc2C12CCCC2 has growth at least equal to 20%.
not met

# check: growth of O=C(c1c(F)ccc(NS(=O)(=O)N2CC[C@@H](F)C2)c1F)c1c[nH]c2ncc(-c3cnc(C4CC4)nc3)cc12 is greater than or equal to 20%
not met

Decide: growth of Nc1cc2c(cc1Br)-c1c(C(=O)O)cccc1C2O (centres undefined) >= 20%?
met

Test whether the compound Cc1ccc(Nc2nccc(N(C)c3ccc4c(C)n(C)nc4c3)n2)cc1S(N)(=O)=O records growth of 20% or higher.
not met

Test whether the compound COc1ccc(Cc2cc(-c3ccccc3C)n[nH]c2=O)cc1 records growth of 20% or higher.
met

Test whether the compound CCN(CC)CCNc1ccc(N=Nc2cnc3ccccc3c2)c2ccccc12 records growth of 20% or higher.
not met

Check if growth >= 20% (inclusive). Item: O=C(COc1cccc(/C=C2\Cc3ccc(Cl)cc3C2=O)c1)Nc1nccs1
met

# check: growth of Nc1nc(Nc2ccccc2)c(C=Nc2ccccc2)c(=O)[nH]1 is greater than or equal to 20%
met

// provenance: PubChem BioAssay (NCI)
